Tested on: MS2 coat protein
EXPERIMENTAL PROTOCOL: apparent KD of MS2 coat protein; designed switch direction (-1 OFF switch, 1 ON switch): -1; higher = weaker reporter binding
RECORDED CONDITIONS: input ligand: none
RECORDED METRIC: apparent KD of MS2 coat protein (µM)
Answers are plain numbers, in µM.

Here are 8 sequences together with their reported answers.
Per the record, AUCGUGUGAGGAUAUCGAUCAUGGAGGUCUAGGUCUAUGCGCGAGAAGGCACAUGAGGAUCACCCAUGUAAUGG [jl-ex4-4.29 ViennaUCT mod] (Eterna round: R97, puzzle: Exclusion 4) has apparent KD of MS2 coat protein of 0.636

Per the record, GGAUAUAAUGUGAGGAUAUCUGCGAUACCUAGUCGAGAGAAGGCACAUGAGGAUCACCCAUGUGAGGACCUCGU [Eternabot (L1) Solution 98] (Eterna round: R97, puzzle: Brourd's mod of Exclusion 4) has apparent KD of MS2 coat protein of 0.0194

Per the record, UUUUACAAGCUAAGAUCCUACAUGAGGAUCACCCAUGUGGUCCGGUGACGUGAGUCACCGGACUUAGCUCGUCUUGA [salish99_S_TOV1_R5_085] (Eterna round: R97, puzzle: Sensor, turn-off variant 1) has apparent KD of MS2 coat protein of 0.0404

Per the record, UGGUAAUCAGUUAGGAUAUCAUCCGGCGUUGUCGGUGAGAAGGAACAUGAGGAUCACCCAUGUAUCGAUUUUAG [BmEX4 B.13] (Eterna round: R97, puzzle: Brourd's mod of Exclusion 4) has apparent KD of MS2 coat protein of 0.019

Per the record, AUAAGUAUAUAGGAUAUCUAGCUGGUAACAGCUAGAGAAGGAUGUACAUGAGGAUCACCCAUGUAAAUCGAUCA [Ex6/10-A2] (Eterna round: R97, puzzle: Exclusion 6) has apparent KD of MS2 coat protein of 0.0181

Per the record, AGUUAUUCAGGAUAUGGUGUGUUAUACAUGAGGAUCACCCAUGUGGAUCCUGGUUAGGCCUCAGAAGGGAAUGUUA [salish99_ex5_r4_126] (Eterna round: R97, puzzle: Exclusion 5) has apparent KD of MS2 coat protein of 0.435

Per the record, AAAUUGUGAGGAUAUCCAAUAUAUGACAUGAGGAUCACCCAUGUUUCCACUCGUACCUCCGGAGAAGGCACUGCAA [Ex5 #39] (Eterna round: R97, puzzle: Exclusion 5) has apparent KD of MS2 coat protein of 0.0272

Per the record, UAUUAGUAAGGAUAUCCUUGCAUGGACGAAAGUCCAUGCAAGGAGAAGGUACAUGAGGAUCACCCAUGUUUAUU [Mod of Fisker 15 - Jieux - Exclusion 4] (Eterna round: R97, puzzle: Exclusion 4) has apparent KD of MS2 coat protein of 0.0174

Please give apparent KD of MS2 coat protein for each item listed below.
1. CUAAAUCAUGUAGGAUAUGCGUGGCGAAGCUAUGCAGAAGGACAUGAGGAUCACCCAUGUGCUUCCGUCUGCGUACAGACGGUA [JL ENG1 1.16] (Eterna round: R96, puzzle: Exclusion NG 1)
2. GGCAUCGGAGGAUAUACUUAUGGUGAUACCGGAAGCUUUCUACUUGAGGAUCACCCAAGUAGAAGGCCGAUGCC [jl-ex2.4.84 ViennaUCT mod] (Eterna round: R97, puzzle: Exclusion 2)
3. CUGACUCAAGGAUAUUGUACUGCUGACAUGAGGAUCACCCAUGUAUGUUAACUCGGCCGACGAGAAGGUGACAAAA [BotMod 7 - Jieux - Exclusion 5] (Eterna round: R97, puzzle: Exclusion 5)
4. CAGAGCAGACGGAGAUCCAACAUGAGGAUCACCCAUGUCUCAAAAGCUUUUUGCUCGUCUUAUCCUCCUCUGUUCAC [Esquitian 3] (Eterna round: R97, puzzle: Sensor, turn-off variant 1)
5. CUGGUUCUAGGAUAUGCACUCACGAUCCUCCUUCAAUCGCAACAUGAGGAUCACCCAUGUAGAAGGAGAAAGUA [Eternabot (L1) Solution 91] (Eterna round: R97, puzzle: Exclusion 2)
6. UGCGGGCUUUUGAGACCUCACAUGAGGAUCACCCAUGUGCUUGUCUUGUGGGUCGGUCGGUCGUUGGCUGGCUGACG [Sensor-V1 #96] (Eterna round: R97, puzzle: Sensor, turn-off variant 1)
7. GCAGCGUAUGUAGGAUAUCGGUCAGUUUCUGAUCGAGAAGGACAUGAGGAUCACCCAUGUUAAGUCAUGCGUGAGCAUGGCUGC [JL ENG1 3.72] (Eterna round: R96, puzzle: Exclusion NG 1)
8. GGUAGAGUGGUAGGAUAUCCGUCUGUUUCAGUCGGAGAAGGACCACAGUCACUGGGUCCAAAUAUGGGUGACCAUGUAUCUACC [pwkr exNG1 F6.3] (Eterna round: R96, puzzle: Exclusion NG 1)

1: 0.0833; 2: 0.0229; 3: 0.111; 4: 0.0304; 5: 0.0186; 6: 0.0193; 7: 0.0314; 8: 0.392

Please give apparent KD of MS2 coat protein for each item listed below.
1. UAUAGGCGAGGAUAUACUAACAAACGGAUCGCCAAACAAGAACUUGAGGAUCACCCAAGUAGAAGGCGCAAUUG [Gezaonsoma] (Eterna round: R97, puzzle: Exclusion 2)
2. AGAUCUAGGACAGGAUAUACCGAUGGCUUCAUCGAAGAUGAAGCCAUCACAUGAGGAUCACCCAUGUAGAAGGGUCCUAGAUCA [Omei Exc(NG) 2Av9] (Eterna round: R96, puzzle: Exclusion NG 2)

0.0241
0.0137

* * *

Test system: K4 kissing-loop RNA reporter;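 note: bound reporter read as fluorescence of individual clusters on recovered sequencing chips by microscopy, with normalized cluster intensities fitted with a binding model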
EXPERIMENTAL PROTOCOL: apparent KD of K4 kissing-loop reporter; higher = weaker reporter binding
RECORDED CONDITIONS: Eterna round: R107; input ligand: none
RECORDED METRIC: apparent KD of K4 kissing-loop reporter (nM)
Numbers only, in nM.

Here are 4 sequences together with their reported answers.
Per the record, "GAGGCCAGACUGAGUGAUGUUUAGUAUGAUACCAGUAUCGAAGGAUACCCUUGGCAGCAUGCCACGGCCUCGGCGGGAAACCGCC" has apparent KD of K4 kissing-loop reporter of 1000

Per the record, AGACUACCACACUGUCAAUAGACAGUGGACUAGGAUAUGCUGAUAAGCAGAAGGAGUGAUGUUCCUCGGUAGUCAAUAAAAUAAU [FmnAX 13 G28+C67] has apparent KD of K4 kissing-loop reporter of 286

Per the record, CGUUUAUAGCAGGAUACCAGUACCGAUAAAGUACGUUAAUAGUAGAGUGAUGUUCUAAAGUACCCUUGGCAGCUUAGAGUGAGUG [ExTheophylB.P] has apparent KD of K4 kissing-loop reporter of 111

Per the record, UUGAGCCGGACGGAAGUCCGGCUCUGCGAGCGAGGACCGGUACGGCCGCCACUCGGUGCAGUGAUGUUGCAUGGCCGCAAGGCCG [#2 Exclusion - Tryptophan A Attempt #4 (HarryS)] has apparent KD of K4 kissing-loop reporter of 301

Please give apparent KD of K4 kissing-loop reporter for each item listed below.
1. GUUGACAGACUGCAAAACUAGUCAACAGACUAGGAUAUCAGGAAACUGAGAAGGAGUCAAGUUGCAGUGAUGUUGCAAGAAUAAU [KL-SSFMN-A27]
2. GCAGUGAUGUUGCACGAGUAGGCUAGAGUACGAGGACCGGUACGGCCGCCACUCGUACGGAAGUCGCUAAUUUAUGGAAUGGUGA [#05 K4 Tryptophan A Same State]

1. 173
2. 548

* * *

System: MS2 coat protein
EXPERIMENTAL PROTOCOL: apparent KD of MS2 coat protein; designed switch direction (-1 OFF switch, 1 ON switch): 1; higher = weaker reporter binding
RECORDED CONDITIONS: Eterna round: R95; input ligand: none
// condition not met strictly below 90 nM in apparent KD of MS2 coat protein; condition met otherwise

Field: example entries. Status: answers known.
Please tell me: is the sequence GAUAGACAUGAGGAUCACCCAUGUGACAAAACCACAGGAUAUCAUGCAGGCGUACCUGCAUGAGAAGGGUGAGACU [Ceriinaqu] (puzzle: Same State 1) at or over 90 nM in terms of apparent KD of MS2 coat protein?
condition not met

Please tell me: is the sequence UCUUGGUUUUUGCUCGUUUUUUGUGUUGAACAUGAGGAUCACCCAUGUAUUGUACGGUCCGAUUUGAUAGUGGUCCG [JMF 20] (puzzle: Sensor for hsa-mir-208a) at or over 90 nM in terms of apparent KD of MS2 coat protein?
condition not met

Please tell me: is the sequence UUAAGCCACGGGCAGGAUAUGUAUUAAAGUACAUGAGGAUCACCCAUGUGCAGGUGUAACACCUGACAGAAGGGCCAAUCGCGGC [Soondi - 3] (puzzle: Same State 2) at or over 90 nM in terms of apparent KD of MS2 coat protein?
condition not met

Please tell me: is the sequence UGUCCAGCCUGAGCUGGACAAAAGCAUGUACAUGAGGAUCACCCAUGUUCAUGUACAAGCUUUUUGCUCGUCUUAUU [salish99_208a_r3_048] (puzzle: Sensor for hsa-mir-208a) at or over 90 nM in terms of apparent KD of MS2 coat protein?
condition met

Please tell me: is the sequence AUGGUGCAGGUACAGGAUAUGUUGCUCGUAACAUGAGGAUCACCCAUGUACCUAUGAGAUUAAAUGCAGAAGGGUGCACACCAAA [Mat - Same State 2 - Mod of UCT - D90] (puzzle: Same State 2) at or over 90 nM in terms of apparent KD of MS2 coat protein?
condition met

More entries:
Please tell me: is the sequence ACAAGCUUUUCUGUAUUGAAAGGUGGGAUACAUGAGGAUCACCCAUGUUUUUUUGAAAAUAAUAUUCCUCGUCUUAU [JR_SHM208A_Sub091] (puzzle: Sensor for hsa-mir-208a) at or over 90 nM in terms of apparent KD of MS2 coat protein?
condition not met

Please tell me: is the sequence UGUGUCAUAGGUUUUUUAGCUCGUCUGAUACAUGAGGAUCACCCAUGUUAUAGCCCUGUGCUUGCGCAGGGCUGAGG [JL shm-2.xx] (puzzle: Sensor for hsa-mir-208a) at or over 90 nM in terms of apparent KD of MS2 coat protein?
condition not met

Please tell me: is the sequence GGCAAUCGCAUUCGAUUGCCUGAGCAUGUACAUGAGGAUCACCCAUGUCAUGUACAGGCUUUUUGCUCGUACUUAUA (puzzle: Sensor for hsa-mir-208a) at or over 90 nM in terms of apparent KD of MS2 coat protein?
condition met

Please tell me: is the sequence GACAAUCUAUCUCAGGAUAUCAUGUCAAAGACAUGAGGAUCACCCAUGUACCAGGAAACUGGUUAUGAGAAGGGAGAUAGAUUGA [Mat - Same State 2 - Mod - D26] (puzzle: Same State 2) at or over 90 nM in terms of apparent KD of MS2 coat protein?
condition met

Please tell me: is the sequence UGGAUCUAGGCUUGCCUGGGUCCAUGCUGACAUGAGGAUCACCCAUGUGCAUCCUACAAGCUUUUUGCUUGUCUGCC (puzzle: Sensor for hsa-mir-208a) at or over 90 nM in terms of apparent KD of MS2 coat protein?
condition met
